Cited source: ChEMBL document CHEMBL1933032

The reader will find Ki measurements below, all made with Histamine H2 receptor (Homo sapiens).
Sequence (P25021 whole entry): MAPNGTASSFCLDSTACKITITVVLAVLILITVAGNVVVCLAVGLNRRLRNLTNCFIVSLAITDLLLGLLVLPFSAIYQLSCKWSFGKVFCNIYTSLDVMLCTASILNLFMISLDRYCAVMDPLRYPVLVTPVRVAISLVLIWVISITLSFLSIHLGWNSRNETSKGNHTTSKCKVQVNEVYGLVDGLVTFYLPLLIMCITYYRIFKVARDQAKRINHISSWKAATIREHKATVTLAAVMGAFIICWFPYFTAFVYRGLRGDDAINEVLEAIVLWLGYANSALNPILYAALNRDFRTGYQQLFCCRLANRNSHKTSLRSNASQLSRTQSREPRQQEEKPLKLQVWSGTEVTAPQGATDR

Measured Ki of `O=S1(=O)CCC(COc2ccc3c(c2)CCC2(CCN(C4CCC4)CC2)O3)CC1` : > 10 µM

Next:
Measured Ki of `CS(=O)(=O)CCCOc1ccc2c(c1)CCC1(CCN(C3CCC3)CC1)O2` : > 10 µM

----------
- EXPERIMENTAL_DETAILS: Half life in rat at 1 mg/kg, iv
- Format: ADME, organism-based
- Design: dose 1 mg/kg, route intravenous
- RUN_CONDITIONS: in vivo
Reported half-life values for the following compounds.
Only the number, expressed in min, is required.

Guide cases for half-life, answers given:
Measured half-life of `O=S1(=O)CCC(COc2ccc3c(c2)CCC2(CCN(C4CCC4)CC2)O3)CC1` : 114

Measured half-life of `O=S1(=O)CCC(Oc2ccc3c(c2)CCC2(CCN(C4CCC4)CC2)O3)CC1` : 102

Next compound, please.
Measured half-life of `CS(=O)(=O)CCCOc1ccc2c(c1)CCC1(CCN(C3CCC3)CC1)O2` : 54
